- assay.target: T1, recombinant human IL-27 (human, UniProt Q14213 21-229; Q8NEV9 29-243)
- T1 construct: Bought from R&D Systems (Cat. 2526-IL); also called hIL-27; rhIL-27
- T1 sequence 1: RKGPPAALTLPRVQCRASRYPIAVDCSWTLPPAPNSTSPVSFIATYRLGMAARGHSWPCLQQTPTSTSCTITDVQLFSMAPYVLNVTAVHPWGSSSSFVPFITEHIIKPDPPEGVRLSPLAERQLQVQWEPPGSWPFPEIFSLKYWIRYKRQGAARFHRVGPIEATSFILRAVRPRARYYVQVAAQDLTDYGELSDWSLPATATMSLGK
- T1 sequence 2: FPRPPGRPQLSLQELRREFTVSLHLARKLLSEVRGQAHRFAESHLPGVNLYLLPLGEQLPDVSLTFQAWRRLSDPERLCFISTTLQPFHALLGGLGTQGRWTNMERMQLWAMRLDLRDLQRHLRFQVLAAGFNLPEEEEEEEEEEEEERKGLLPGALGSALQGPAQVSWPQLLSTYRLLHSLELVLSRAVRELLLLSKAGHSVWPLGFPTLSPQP
- method.description: SPR, hIL-27 on CM5 chip, bivalent analyte model
- Protocol: The antibodies were further characterized by surface plasmon resonance (SPR). Kinetic experiments were performed on a Biacore T200 (GE Healthcare, Uppsala, Sweden). […] The association phase for the three injections of increasing concentrations of antibody was monitored for 75 seconds each time and a single dissociation phase was measured for 250 seconds following the last injection of antibody. […]
measure: kd2 (s⁻¹)
Give bare numbers, in s⁻¹.

Data request: Consider the binder Ab7.3 (antibody, human IgG1, kappa, V domains shown, human IgG1/kappa) VH: EVKLVESGGGLVQPGGSLRLSCAASGFTFTSYSMSWVRQAPGKGLEWVAYISYDGGSAYYPDTVKGRFTISRDNSKKTLYLQMSSLKSEDTAMYYCARHGDYDDDDAMDYWGQGTSVTVSS VL: DIQMTQSPASLSASVGETVTITCRASENIYSYLAWYQQKQGKSPQLLVYNAETLTEGVPSRFSGSGSGTQFSLKINSLQPEDFGNYYCQHHYGTPLTFGAGTKLDLKR and give its recorded kd2.
Data returned: 0.063
